Every entry's value here was drawn from patent US20160317656A1.

Target: T1, IIIb
T1 chain: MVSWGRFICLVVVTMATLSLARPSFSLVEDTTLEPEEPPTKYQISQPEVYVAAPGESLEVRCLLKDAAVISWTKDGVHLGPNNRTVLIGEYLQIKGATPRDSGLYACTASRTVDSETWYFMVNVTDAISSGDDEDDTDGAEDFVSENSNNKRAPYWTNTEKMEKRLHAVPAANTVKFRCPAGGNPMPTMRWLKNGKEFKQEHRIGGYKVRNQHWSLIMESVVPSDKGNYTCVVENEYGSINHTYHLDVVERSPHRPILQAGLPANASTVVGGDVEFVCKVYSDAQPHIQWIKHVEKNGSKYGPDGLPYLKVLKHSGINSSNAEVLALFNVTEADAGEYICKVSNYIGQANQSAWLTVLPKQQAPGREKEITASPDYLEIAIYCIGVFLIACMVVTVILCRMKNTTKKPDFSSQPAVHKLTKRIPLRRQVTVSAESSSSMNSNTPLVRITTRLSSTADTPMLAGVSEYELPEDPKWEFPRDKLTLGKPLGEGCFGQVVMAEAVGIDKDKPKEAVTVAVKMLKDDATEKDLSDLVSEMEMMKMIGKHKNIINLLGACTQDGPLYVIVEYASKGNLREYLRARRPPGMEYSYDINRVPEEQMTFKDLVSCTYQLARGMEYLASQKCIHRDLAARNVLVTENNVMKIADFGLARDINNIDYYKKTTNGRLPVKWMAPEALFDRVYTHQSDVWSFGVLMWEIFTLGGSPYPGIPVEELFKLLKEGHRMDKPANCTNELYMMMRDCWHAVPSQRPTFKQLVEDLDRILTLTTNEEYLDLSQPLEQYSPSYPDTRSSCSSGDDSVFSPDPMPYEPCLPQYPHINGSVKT
Assay: Biacore; rhFGFR2 alpha (IIIb) Fc chimera
# reported Kd; entries follow
Write it as a number; the unit nM goes unstated.

# example entries with known answers
binder: humanized anti-FGFR2 antibody hFR2-14_H4/L1 (antibody, V domains shown) VH: QVQLVQSGAEVKKPGASVKVSCKASGFTFSTSYMSWVRQAPGPSIEWMGWIYAGDGGTKYNQKFKGRVTLTVDKSTSTAYMELSSLRSEDTAVYYCATDGYGDWFAYWGQGTLVTVSS VL: DIQMTQSPSSLSASVGDRVTITCRASEDIYSNLAWYQQKPGKSPQLLIYDANILADGVPSRFSGSGSGTDYTLTISSLQPEDFATYYCQQYNNYPPFTFGQGTKVEIKR
unit.annotation: nM
result.number: 5.4

binder: human chimeric anti-FGFR2 antibody cFR2-14 (antibody, V domains shown) VH: QVKLLQSGAELVKPGASVKLSCKTSGFTFSTSYMSWLKQVPGPSTEWIGWIYAGDGGTKYNQKFKGKATLTVDKFSSTAYMDLSSLTSEDAAVYFCATDGYGDWFTYWGQGTLVTVSS VL: DIQMTQSPASLSASLGETVTIECRASEDIYSNLAWYQQKPGNSPQLLIYDANILADGVPSRFSGSGSGTQYSLKINSLQSEDVASYFCQQYNNYPPFTFGAGTKLELKR
unit.annotation: nM
result.number: 63

binder: humanized anti-FGFR2 antibody hFR2-14_H1/L1 (antibody, V domains shown) VH: QVQLVQSGAEVKKPGASVKVSCKASGFTFSTSYMSWVRQAPGQGLEWMGWIYAGDGGTKYNQKFKGRVTLTVDKSTSTAYMELSSLRSEDTAVYYCATDGYGDWFTYWGQGTLVTVSS VL: DIQMTQSPSSLSASVGDRVTITCRASEDIYSNLAWYQQKPGKSPQLLIYDANILADGVPSRFSGSGSGTDYTLTISSLQPEDFATYYCQQYNNYPPFTFGQGTKVEIKR
unit.annotation: nM
result.number: 12

Prompt: What value of Kd has been recorded for this entry: humanized anti-FGFR2 antibody hFR2-14_H2/L1 (antibody, V domains shown) VH: QVQLVQSGAEVKKPGASVKVSCKASGFTFSTSYMSWVRQAPGQGLEWMGWIYAGDGGTKYNQKFKGRVTLTADKSTSTAYMELSSLRSEDTAVYYCATDGYGDWFTYWGQGTLVTVSS VL: DIQMTQSPSSLSASVGDRVTITCRASEDIYSNLAWYQQKPGKSPQLLIYDANILADGVPSRFSGSGSGTDYTLTISSLQPEDFATYYCQQYNNYPPFTFGQGTKVEIKR
Completion: 8.7
